biological target: PU.1 (IVT) (UniProt P17947 1-270); assay: protein-binding microarray (PBM); 20 mM HEPES pH 7.9, 100 mM NaCl, 1 mM DTT, 0.2 mg/mL BSA, 0.02% Triton X-100, 2% milk, 0.4 mg/mL salmon testes DNA; 1 h; temperature not stated; high values mean tight binding; settings: dsDNA, one strand shown
The full ranking holds about 3,700 sequences; the median of “z-score” is about 4, and the highest 2% start at about 8.4. For the sample, the highest values were picked, then their nearest neighbours and some sequences at random.
Recorded measurements of binding signal, one per entry
Provide the reading as a plain figure in z-score.

Some solved cases for reference:
# polymer_sequence, unit_tag, reported
data = [
    ("GCCTAGCACAGAAAGAGGAACTGAAAAGTGTGCTAGGTCTTGATTCGCTTGACGCTGCTG", "z-score", 6.62),
    ("GCCTAGCACAAAAAGCGGAAGTGCAAAAGGTGCTAGGTCTTGATTCGCTTGACGCTGCTG", "z-score", 8.5),
]

binding signal measured on GCCTAGCACGAAAGGAGGAAGTACTGTGGGTGCTAGGTCTTGATTCGCTTGACGCTGCTG = 6.78

# binding signal of GCCTAGCACAGAGAGGGGAAGTGACTTGCGTGCTAGGTCTTGATTCGCTTGACGCTGCTG = 4.95

Recorded result, GCCTAGCACTAAAAGAGGAAGTAGGAATAGTGCTAGGTCTTGATTCGCTTGACGCTGCTG , binding signal: 8.36

// GCCTAGCACTAAAAGAGGAAGTGCATTCAGTGCTAGGTCTTGATTCGCTTGACGCTGCTG : binding signal value = 8.5

# binding signal of GCCTAGCACTCAGGAGGGAAGTGAAGAAAGTGCTAGGTCTTGATTCGCTTGACGCTGCTG = 2.65

Documented binding signal of GCCTAGCACAGAAAGGGGAAGTGACTTGCGTGCTAGGTCTTGATTCGCTTGACGCTGCTG : 8.13

Short answer for GCCTAGCACAAGAGGAGGAAGTGAGAGAGGTGCTAGGTCTTGATTCGCTTGACGCTGCTG : binding signal was 4.33

Memo: GCCTAGCACCGAAAGGGGAAGTGCTAAGCGTGCTAGGTCTTGATTCGCTTGACGCTGCTG , reported binding signal: 6.82

For GCCTAGCACAGAAAGAGGAAGTCCTCTCTGTGCTAGGTCTTGATTCGCTTGACGCTGCTG the sequence record lists binding signal as 8.3

According to the records, this sequence GCCTAGCACGAGAAGAGGAAGTGAGATCTGTGCTAGGTCTTGATTCGCTTGACGCTGCTG displays binding signal of 6.45

Entry GCCTAGCACTATTTGAGGAAGTGTGAGAAGTGCTAGGTCTTGATTCGCTTGACGCTGCTG , binding signal reported as 5.91

---

target: PU.1 (IVT) (UniProt P17947 1-270); assay: protein-binding microarray (PBM); 20 mM HEPES pH 7.9, 100 mM NaCl, 1 mM DTT, 0.2 mg/mL BSA, 0.02% Triton X-100, 2% milk, 0.4 mg/mL salmon testes DNA; 1 h; temperature not stated; high values mean tight binding; conditions: dsDNA, one strand shown
In all, about 3,700 sequences were measured (“z-score”: median about 4, highest 2% from about 8.4 on). What follows is part of a selection rich in the highest values, with near analogues and random picks from the rest.
The threshold is 8 z-score. Values of binding signal beneath it are tagged True; values meeting or exceeding it are tagged False.

Previously resolved entries follow.
# polymer_sequence, assigned_class
rows = [
    ("GCCTAGCACAAAATGAGGAAGTAATTCCTGTGCTAGGTCTTGATTCGCTTGACGCTGCTG", "False"),
    ("GCCTAGCACAAAATGAGGAAGTACCCTCTGTGCTAGGTCTTGATTCGCTTGACGCTGCTG", "False"),
    ("GCCTAGCACAAATAGAGGAAGTGGAATGGGTGCTAGGTCTTGATTCGCTTGACGCTGCTG", "True"),
    ("GCCTAGCACAAAATGAGGAAGTGCTTCTAGTGCTAGGTCTTGATTCGCTTGACGCTGCTG", "False"),
]

In: Quick check: binding signal of GCCTAGCACAAAATGAGGAAGTGACTTTGGTGCTAGGTCTTGATTCGCTTGACGCTGCTG under 8 z-score?
Out: False
